- experimental-system: T1, human PACAP27 (human, C-terminal leucine is amidated; 125I-labelled in Example 10)
- T1 peptide: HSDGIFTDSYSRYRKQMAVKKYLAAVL
- experiment-summary: SPR, Ab immobilised
result-type: Kd (nM)
Your answer is read as nM, so omit the unit and give the number.

Query: Quickly give me recorded Kd for anti-PACAP antibody Ab3.H (antibody, human IgG1, kappa, N297A, V domains shown, humanized form of Ab3, full length) VH: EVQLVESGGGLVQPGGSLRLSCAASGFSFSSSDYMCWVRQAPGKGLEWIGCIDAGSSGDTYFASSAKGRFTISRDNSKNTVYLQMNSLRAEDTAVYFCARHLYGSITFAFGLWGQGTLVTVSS VL: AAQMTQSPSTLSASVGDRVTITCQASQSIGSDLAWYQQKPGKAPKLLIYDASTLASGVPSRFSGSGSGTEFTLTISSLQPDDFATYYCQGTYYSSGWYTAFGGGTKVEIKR
Reply: 1

Query: Read off the recorded Kd for anti-PACAP antibody Ab5.H (antibody, human IgG1, kappa, N297A, V domains shown, humanized form of Ab5, full length) VH: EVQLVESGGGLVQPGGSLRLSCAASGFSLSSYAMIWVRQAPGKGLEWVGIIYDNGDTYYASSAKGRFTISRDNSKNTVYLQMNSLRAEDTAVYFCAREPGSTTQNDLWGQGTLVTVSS VL: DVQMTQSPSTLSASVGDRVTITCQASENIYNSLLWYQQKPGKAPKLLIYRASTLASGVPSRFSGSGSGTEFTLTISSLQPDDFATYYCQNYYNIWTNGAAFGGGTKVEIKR
Reply: 0.48

Query: Hello, please tell me recorded Kd for this one: anti-PACAP antibody Ab6 (antibody, human IgG1, kappa, N297A, V domains shown, full-length rabbit/human chimeric antibody) VH: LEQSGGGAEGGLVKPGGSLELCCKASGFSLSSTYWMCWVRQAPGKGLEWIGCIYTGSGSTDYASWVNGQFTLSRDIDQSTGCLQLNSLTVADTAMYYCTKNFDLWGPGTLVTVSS VL: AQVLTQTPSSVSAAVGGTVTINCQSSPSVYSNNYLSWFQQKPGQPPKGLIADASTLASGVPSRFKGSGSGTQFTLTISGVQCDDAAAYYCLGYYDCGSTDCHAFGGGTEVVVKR
Reply: 0.21

Query: Indicate its recorded Kd; the binder in question is anti-PACAP antibody Ab10 (antibody, V domains shown) VH: QSVEESGGRLVTPGTPLTLTCTVSGIDLNSYYMTWVRQAPGKGLEWIGFIDAGGDAYYASWAKGRFTISKTSTTVDLKITSPTTEDTATYFCARDLDLWGQGTLVTVSS VL: AAVLTQTPSPVSAAVGGTVTINCQSSESVYGNYLAWFQQKPGQPPKLLIYEASKLESGVPSRFSGSGSGTQFTLTISDLQCDDAATYYCAGGDISEGVAFGGGTEVVVKR
Reply: 0.01

Query: Find the measured Kd of anti-PACAP antibody Ab12 (antibody, human IgG1, kappa, N297A, V domains shown, full-length rabbit/human chimeric antibody) VH: QSVEESGGRLVTPGTPLTLTCTASGFSLSSYAMGWVRQAPGKGLEWIGDISTYGTTDYASWVYGRFTISRTSTTVTLKMTSLTTEDTATYFCARDYWLSLWGQGTLVTVSS VL: AAVLTQTPSPVSAAVGGTVTIKCQSSQSVYDNNALAWYQQKPGQPPKLLIYAASTLASGVPSRFSGSGSGTEFTLTISGVQCDDAATYYCLGGYYDPADNAFGGGTEVVVKR and report it.
Reply: 0.07

Query: Read the entry anti-PACAP antibody Ab9.H (antibody, human IgG1, kappa, N297A, V domains shown, humanized form of Ab9, full length) VH: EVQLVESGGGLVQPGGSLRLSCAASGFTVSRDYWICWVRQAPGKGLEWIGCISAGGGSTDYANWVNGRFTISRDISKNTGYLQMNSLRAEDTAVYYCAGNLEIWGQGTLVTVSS VL: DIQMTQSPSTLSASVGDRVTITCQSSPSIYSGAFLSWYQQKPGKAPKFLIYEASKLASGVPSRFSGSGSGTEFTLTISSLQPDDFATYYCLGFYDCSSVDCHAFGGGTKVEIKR and write its reported Kd.
Reply: 0.12
